Test system: GSK3A
condition set: concentration: 1 μM, replicates: in singlicate; n = 1;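 further: KINOMEscan kinase panel screen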
Criterion: %Inh strictly under 10%. Met: true. Not met: false.

compound: [2H]C([2H])(c1cccc(C(F)(F)F)c1C)n1ccn2c(=O)nc(N3CCOCC3)cc12 [GSK2336394]
assayed system: GSK3A
group: true
--
compound: COc1cc2ncn(-c3cc(OCc4sccc4Cl)c(C(N)=O)s3)c2cc1OC [GSK448459]
assayed system: GSK3A
group: true
--
compound: Fc1ccc(-c2ncn(CCCN3CCOCC3)c2-c2cccnc2)cc1 [SB-211743]
assayed system: GSK3A
group: false
--
compound: COc1cc2c(cc1OCCN1CCN(C)CC1)ncc1c3ccc(C#N)cc3[nH]c21
assayed system: GSK3A
group: true
--
compound: N#Cc1ccc(-c2cc(-c3c[nH]nc3-c3ccccn3)ccn2)cc1 [GW693028]
assayed system: GSK3A
group: false
--
compound: NCC(NC(=O)c1cc(-c2cn[nH]c2)c(-c2ccnc3[nH]ccc23)s1)c1ccccc1.O=C(O)C(F)(F)F.O=C(O)C(F)(F)F (centres unmarked) [GSK1325775]
assayed system: GSK3A
group: false
--
compound: O=C(NOCC1CC1)c1ccc(F)c(F)c1Nc1ccc(I)cc1Cl
assayed system: GSK3A
group: true
--
compound: O=c1cc(N2CCOCC2)nc2n(Cc3cccc(Cl)c3Cl)c(C3CC3)nn12 [GSK2358994]
assayed system: GSK3A
group: true

====

Entries and their %Inh
System: ABL2
condition set: concentration: 1 μM, replicates: in singlicate; n = 1

smi: NS(=O)(=O)CCc1cccc(Nc2nccc(-c3c(-c4cccc(NC(=O)c5c(F)cccc5F)c4)nn4ccccc34)n2)c1
%Inh, %: 78
//
smi: NS(=O)(=O)c1cccc(-c2ccc3nccc(-c4cccc(S(N)(=O)=O)c4)c3c2)c1
%Inh, %: 0
//
smi: N#Cc1c(N2CCOCC2)sc(-c2ccn[nH]2)c1-c1ccc(Cl)cc1
%Inh, %: 9
//
smi: O=C(NCCNc1ccnc(Nc2ccc(F)cc2)n1)c1cc2ccccc2s1
%Inh, %: 7

====

System: PFTK1
Construct: gene CDK14
condition set: concentration: 1 μM, replicates: in singlicate; n = 1
Could you please mark Yes for values of %Inh below 3% and No for values at or above it?

compound: Cc1nnc(-c2ccc3occ(-c4ccc(C(C)O)cc4)c3c2)o1 (centres unmarked)
group: Yes
//
compound: Cc1nnc(-c2ccc(C)c(-c3ccc(C(=O)Nc4ccc(NS(C)(=O)=O)cc4)cc3)c2)o1
group: No
//
compound: COCCNC(=O)c1ccc(-c2cc(C(=O)NC3CC3)cc(F)c2C)cc1
group: No
//
compound: COc1ccc(COc2cc(-n3cnc4ccccc43)sc2C(N)=O)cc1
group: Yes

====

Test system: MARK2
condition set: concentration: 1 μM, replicates: in singlicate; n = 1
Recorded %Inh by entry
value kind: %Inh (%)

compound: CSc1ccc(-c2cc3ncnc(SCC(=O)O)c3s2)cc1
unit of measurement: %
readout value: 18
//
compound: CCc1nc(-c2cccc(C)c2)c(-c2ccnc(NCc3ccccc3)c2)s1
unit of measurement: %
readout value: 1
//
compound: Cl.Nc1ncnc2occ(-c3ccc(NC(=O)Nc4cc(C(F)(F)F)ccc4F)cc3)c12 [SB-707548]
unit of measurement: %
readout value: 32
//
compound: O=C1Cc2cc(Nc3nc(NCc4cccc(S(=O)(=O)C(F)(F)F)c4)ncc3C(F)(F)F)ccc2N1
unit of measurement: %
readout value: 0
//
compound: O=C(Nc1n[nH]c2cc(-c3cccc(F)c3)ccc12)C1CC1 [SB-735464]
unit of measurement: %
readout value: 25
//
compound: Cc1ccc(C(=O)NCC(N)=O)cc1-n1c(C)cc(OCc2ccc(F)cc2F)c(Br)c1=O
unit of measurement: %
readout value: 11
//
compound: COc1ccc(CNC(=O)NC2CCN(c3ccnc(Nc4ccc(OC)cc4)n3)C2)cc1 (stereo not drawn) [GSK1379727]
unit of measurement: %
readout value: 0
//
compound: [2H]C([2H])(c1cccc(C(F)(F)F)c1C)n1ccn2c(=O)nc(N3CCOCC3)cc12 [GSK2336394]
unit of measurement: %
readout value: 0
//
compound: NS(=O)(=O)c1cccc(-c2ccc3ncc(N4CCOCC4)nc3c2)c1 [GSK1535721]
unit of measurement: %
readout value: 11

====

System: MAP4K5
condition set: concentration: 1 μM, replicates: in singlicate; n = 1
Listed here: items and their measured %Inh.

compound: N#Cc1c(N2CCOCC2)sc(-c2ccn[nH]2)c1-c1ccc(Cl)cc1
%Inh [%]: 0

compound: COc1ccc(Nc2nccc(N3CCC(NC(=O)Nc4cc(C)ccc4C)C3)n2)cc1 (stereo not drawn)
%Inh [%]: 0

compound: O=C(NCCCN1CCOCC1)c1cccc(Nc2nccc(Nc3ccc(Oc4ccccc4)cc3)n2)c1
%Inh [%]: 0

compound: COc1ccc(Nc2nccc(N3CCC(NC(=O)Nc4cccc(C(C)=O)c4)C3)n2)cc1 (stereo not drawn)
%Inh [%]: 0

compound: Cc1c2ccc(N(C)c3ccnc(Nc4cccc(S(N)(=O)=O)c4)n3)cc2nn1Cc1ccccc1.Cl.Cl
%Inh [%]: 87

compound: CCc1nc(-c2cccc(C)c2)c(-c2ccnc(NCc3ccccc3)c2)s1
%Inh [%]: 0

compound: CCc1ccnc(/C=C/c2n[nH]c3cc(Sc4ccccc4C(=O)NC)ccc23)c1
%Inh [%]: 3

compound: c1ccc(-c2cc(-c3c[nH]nc3-c3ccccn3)ccn2)cc1
%Inh [%]: 0

compound: Cc1nnc(-c2ccc3ncc(-c4ccc(S(C)=O)cc4)n3c2)o1 (stereo not drawn)
%Inh [%]: 0

compound: O=C(NCCNc1ccnc(Nc2ccc(F)cc2)n1)c1cc2ccccc2s1
%Inh [%]: 3

compound: NCC(NC(=O)c1cc(-c2cn[nH]c2)c(-c2ccnc3[nH]ccc23)s1)c1ccccc1.O=C(O)C(F)(F)F.O=C(O)C(F)(F)F (stereo not drawn)
%Inh [%]: 25

compound: CN(C1=C(c2ccccc2)C(=O)NC1=O)c1ccccc1
%Inh [%]: 9

compound: O=C(c1ccc(-c2cc(-c3c[nH]nc3-c3ccccn3)ccn2)cc1)N1CCOCC1
%Inh [%]: 0

compound: COc1ccc(COc2cc(-n3cnc4ccccc43)sc2C(N)=O)cc1
%Inh [%]: 24

compound: Cc1nnc(-c2ccc3occ(-c4ccc(C(C)O)cc4)c3c2)o1 (stereo not drawn)
%Inh [%]: 15

compound: COc1ccc(Nc2ncc(C#N)c(Nc3ccccc3C(N)=O)n2)cc1N1CCN(C)CC1.Cl
%Inh [%]: 99.3

compound: O=C(NCCNc1ccnc(Nc2ccc(F)cc2)n1)Nc1ccccc1F
%Inh [%]: 0

compound: O=C1Cc2cc(Nc3nc(NCc4cccc(S(=O)(=O)C(F)(F)F)c4)ncc3C(F)(F)F)ccc2N1
%Inh [%]: 0

====

Parameter: %Inh. Scope: all listed entries.
System: CAMK1D
condition set: concentration: 1 μM, replicates: in singlicate; n = 1

smi: O=C(Nc1cccc(-c2nn3ncccc3c2-c2ccnc(Nc3cccc(C(F)(F)F)c3)n2)c1)c1c(F)cccc1F
%Inh: 21%

smi: Cc1cn2c(=O)cc(N3CCOCC3)nc2n1Cc1cccc(Cl)c1Cl
%Inh: 14%

smi: O=C(NCCNc1ccnc(Nc2ccc(F)cc2)n1)c1cc2ccccc2s1
%Inh: 1%

smi: NS(=O)(=O)c1cccc(-c2ccc3ncc(N4CCOCC4)nc3c2)c1
%Inh: 18%

smi: Cc1c2ccc(N(C)c3ccnc(Nc4cccc(S(N)(=O)=O)c4)n3)cc2nn1Cc1ccccc1.Cl.Cl
%Inh: 0%

smi: CCc1ccnc(/C=C/c2n[nH]c3cc(Sc4ccccc4C(=O)NC)ccc23)c1
%Inh: 0%

smi: Nc1nccc(-c2c(-c3ccc(F)cc3)ncn2C2CCN(CC(F)(F)F)CC2)n1
%Inh: 0%

smi: c1ccc(-c2cc(-c3c[nH]nc3-c3ccccn3)ccn2)cc1
%Inh: 14%

====

System: CTK
Construct: gene MATK
condition set: concentration: 1 μM, replicates: in singlicate; n = 1
value kind: %Inh (%)

compound: COCCNC(=O)c1ccc(-c2cc(C(=O)NC3CC3)cc(F)c2C)cc1 [GW868318]
assayed system: CTK
value kind: %Inh
readout value: 11
//
compound: O=c1cc(N2CCOCC2)nc2n(Cc3cccc4ccccc34)ccn12 [GSK2333389]
assayed system: CTK
value kind: %Inh
readout value: 1
//
compound: CNc1ncnc2[nH]ncc12 [SKF-18355]
assayed system: CTK
value kind: %Inh
readout value: 18
//
compound: O=C(NCCNc1ccnc(Nc2ccc(F)cc2)n1)c1cc2ccccc2s1 [GSK1379874]
assayed system: CTK
value kind: %Inh
readout value: 52
//
compound: O=C(c1ccc(-c2cc(-c3c[nH]nc3-c3ccccn3)ccn2)cc1)N1CCOCC1 [GW812171]
assayed system: CTK
value kind: %Inh
readout value: 49
